experiment: Crushing, static electricity and fluidity test; type: physicochemical

[
  {
    "compound": "CN1CCN(c2ccc(C(=O)Nc3n[nH]c4ccc(Cc5cc(F)cc(F)c5)cc34)c(NC3CCOCC3)c2)CC1 [Crystal form AZT-A of Reference Example 4] [entrectinib]",
    "Fluidity": "poor fluidity"
  },
  {
    "compound": "CN1CCN(c2ccc(C(=O)Nc3n[nH]c4ccc(Cc5cc(F)cc(F)c5)cc34)c(NC3CCOCC3)c2)CC1 [Crystal form B of Example 5]",
    "Fluidity": "good fluidity"
  },
  {
    "compound": "CN1CCN(c2ccc(C(=O)Nc3n[nH]c4ccc(Cc5cc(F)cc(F)c5)cc34)c(NC3CCOCC3)c2)CC1 [Crystal form AZT-B of Reference Example 5] [entrectinib]",
    "Fluidity": "poor fluidity"
  },
  {
    "compound": "CN1CCN(c2ccc(C(=O)Nc3n[nH]c4ccc(Cc5cc(F)cc(F)c5)cc34)c(NC3CCOCC3)c2)CC1 [Crystal form AZT-E of Reference Example 6] [entrectinib]",
    "Fluidity": "poor fluidity"
  },
  {
    "compound": "CN1CCN(c2ccc(C(=O)Nc3n[nH]c4ccc(Cc5cc(F)cc(F)c5)cc34)c(NC3CCOCC3)c2)CC1 [Crystal form A of Example 2]",
    "Fluidity": "good fluidity"
  }
]

###

assay: Crystal form stability test (affecting factors); type: physicochemical; settings: High temperature condition 60° C., 10 days
result-type: Crystal form found

[
  {
    "compound": "CN1CCN(c2ccc(C(=O)Nc3n[nH]c4ccc(Cc5cc(F)cc(F)c5)cc34)c(NC3CCOCC3)c2)CC1 [Crystal form 1 of Reference Example 1, entrectinib]",
    "result-type": "Crystal form found",
    "endpoint-value": "form 2"
  },
  {
    "compound": "CN1CCN(c2ccc(C(=O)Nc3n[nH]c4ccc(Cc5cc(F)cc(F)c5)cc34)c(NC3CCOCC3)c2)CC1 [Crystal form 2 of Reference Example 2, entrectinib]",
    "result-type": "Crystal form found",
    "endpoint-value": "form 2"
  }
]

###

test: Solubility comparison of crystals; type: physicochemical; conditions: 95% ethanol, 25 °C, organic solvent or mixture, thermodynamic from solid, 25° C., dissolution time 20 min; read-out: Solubility in 95% ethanol
result-type: solubility at 20 min (mg/mL)

[
  {
    "compound": "CN1CCN(c2ccc(C(=O)Nc3n[nH]c4ccc(Cc5cc(F)cc(F)c5)cc34)c(NC3CCOCC3)c2)CC1 [Crystal form A of Example 2]",
    "unit-info": "mg/mL",
    "endpoint-value": 28.4
  }
]

###

Listing of recorded Purity (%) by entry.
test: Chemical stability test (affecting factors, HPLC purity); assay type: physicochemical; conditions: 0 day

[
  {
    "compound": "CN1CCN(c2ccc(C(=O)Nc3n[nH]c4ccc(Cc5cc(F)cc(F)c5)cc34)c(NC3CCOCC3)c2)CC1 [Crystal form 2 of Reference Example 2, entrectinib]",
    "unit-info": "%",
    "Purity (%)": 99.34
  },
  {
    "compound": "CN1CCN(c2ccc(C(=O)Nc3n[nH]c4ccc(Cc5cc(F)cc(F)c5)cc34)c(NC3CCOCC3)c2)CC1 [Crystal form 4 of Reference Example 3, entrectinib]",
    "unit-info": "%",
    "Purity (%)": 99.29
  },
  {
    "compound": "CN1CCN(c2ccc(C(=O)Nc3n[nH]c4ccc(Cc5cc(F)cc(F)c5)cc34)c(NC3CCOCC3)c2)CC1 [Crystal form A of Example 2]",
    "unit-info": "%",
    "Purity (%)": 99.92
  },
  {
    "compound": "CN1CCN(c2ccc(C(=O)Nc3n[nH]c4ccc(Cc5cc(F)cc(F)c5)cc34)c(NC3CCOCC3)c2)CC1 [Crystal form B of Example 5]",
    "unit-info": "%",
    "Purity (%)": 99.91
  },
  {
    "compound": "CN1CCN(c2ccc(C(=O)Nc3n[nH]c4ccc(Cc5cc(F)cc(F)c5)cc34)c(NC3CCOCC3)c2)CC1 [Crystal form 1 of Reference Example 1, entrectinib]",
    "unit-info": "%",
    "Purity (%)": 99.21
  }
]

###

test: Chemical stability test (affecting factors, HPLC purity); type: physicochemical; details: High temperature condition 60° C., 10 days
The entries below are paired with their reported Purity (%).

[
  {
    "compound": "CN1CCN(c2ccc(C(=O)Nc3n[nH]c4ccc(Cc5cc(F)cc(F)c5)cc34)c(NC3CCOCC3)c2)CC1 [Crystal form A of Example 2]",
    "Purity (%)": 99.91
  },
  {
    "compound": "CN1CCN(c2ccc(C(=O)Nc3n[nH]c4ccc(Cc5cc(F)cc(F)c5)cc34)c(NC3CCOCC3)c2)CC1 [Crystal form B of Example 5]",
    "Purity (%)": 99.91
  },
  {
    "compound": "CN1CCN(c2ccc(C(=O)Nc3n[nH]c4ccc(Cc5cc(F)cc(F)c5)cc34)c(NC3CCOCC3)c2)CC1 [Crystal form 2 of Reference Example 2, entrectinib]",
    "Purity (%)": 99.34
  },
  {
    "compound": "CN1CCN(c2ccc(C(=O)Nc3n[nH]c4ccc(Cc5cc(F)cc(F)c5)cc34)c(NC3CCOCC3)c2)CC1 [Crystal form 1 of Reference Example 1, entrectinib]",
    "Purity (%)": 99.20
  },
  {
    "compound": "CN1CCN(c2ccc(C(=O)Nc3n[nH]c4ccc(Cc5cc(F)cc(F)c5)cc34)c(NC3CCOCC3)c2)CC1 [Crystal form 4 of Reference Example 3, entrectinib]",
    "Purity (%)": 99.28
  }
]

###

assay: Crystal microscopic morphology by scanning electron microscope; type: physicochemical
result-type: electron microscopy results of the crystal: length of larger crystals/particles

[
  {
    "molecule": "CN1CCN(c2ccc(C(=O)Nc3n[nH]c4ccc(Cc5cc(F)cc(F)c5)cc34)c(NC3CCOCC3)c2)CC1 [Crystal form B of Example 5]",
    "endpoint-value": "~10 μm"
  },
  {
    "molecule": "CN1CCN(c2ccc(C(=O)Nc3n[nH]c4ccc(Cc5cc(F)cc(F)c5)cc34)c(NC3CCOCC3)c2)CC1 [Crystal form A of Example 2]",
    "endpoint-value": "~20 μm"
  },
  {
    "molecule": "CN1CCN(c2ccc(C(=O)Nc3n[nH]c4ccc(Cc5cc(F)cc(F)c5)cc34)c(NC3CCOCC3)c2)CC1 [Crystal form AZT-E of Reference Example 6] [entrectinib]",
    "endpoint-value": "more than about 1000 μm"
  },
  {
    "molecule": "CN1CCN(c2ccc(C(=O)Nc3n[nH]c4ccc(Cc5cc(F)cc(F)c5)cc34)c(NC3CCOCC3)c2)CC1 [Crystal form AZT-B of Reference Example 5] [entrectinib]",
    "endpoint-value": "more than about 1000 μm"
  }
]

###

Below is a list of entries, each paired with its recorded Purity (%) value.
assay: Chemical stability test (affecting factors, HPLC purity); assay type: physicochemical; conditions: High humidity condition 90% RH, 10 days
result-type: Purity (%)

[
  {
    "compound": "CN1CCN(c2ccc(C(=O)Nc3n[nH]c4ccc(Cc5cc(F)cc(F)c5)cc34)c(NC3CCOCC3)c2)CC1 [Crystal form B of Example 5]",
    "result-type": "Purity (%)",
    "endpoint-value": "99.90%"
  },
  {
    "compound": "CN1CCN(c2ccc(C(=O)Nc3n[nH]c4ccc(Cc5cc(F)cc(F)c5)cc34)c(NC3CCOCC3)c2)CC1 [Crystal form 4 of Reference Example 3, entrectinib]",
    "result-type": "Purity (%)",
    "endpoint-value": "99.29%"
  },
  {
    "compound": "CN1CCN(c2ccc(C(=O)Nc3n[nH]c4ccc(Cc5cc(F)cc(F)c5)cc34)c(NC3CCOCC3)c2)CC1 [Crystal form 2 of Reference Example 2, entrectinib]",
    "result-type": "Purity (%)",
    "endpoint-value": "99.33%"
  },
  {
    "compound": "CN1CCN(c2ccc(C(=O)Nc3n[nH]c4ccc(Cc5cc(F)cc(F)c5)cc34)c(NC3CCOCC3)c2)CC1 [Crystal form A of Example 2]",
    "result-type": "Purity (%)",
    "endpoint-value": "99.92%"
  },
  {
    "compound": "CN1CCN(c2ccc(C(=O)Nc3n[nH]c4ccc(Cc5cc(F)cc(F)c5)cc34)c(NC3CCOCC3)c2)CC1 [Crystal form 1 of Reference Example 1, entrectinib]",
    "result-type": "Purity (%)",
    "endpoint-value": "99.20%"
  }
]

###

assay: Chemical stability test (affecting factors, HPLC purity); type: physicochemical; conditions: Light condition 5000 lux/h, 10 days
result-type: Purity (%)

[
  {
    "compound": "CN1CCN(c2ccc(C(=O)Nc3n[nH]c4ccc(Cc5cc(F)cc(F)c5)cc34)c(NC3CCOCC3)c2)CC1 [Crystal form 2 of Reference Example 2, entrectinib]",
    "endpoint-value": 99.33
  },
  {
    "compound": "CN1CCN(c2ccc(C(=O)Nc3n[nH]c4ccc(Cc5cc(F)cc(F)c5)cc34)c(NC3CCOCC3)c2)CC1 [Crystal form 4 of Reference Example 3, entrectinib]",
    "endpoint-value": 99.28
  },
  {
    "compound": "CN1CCN(c2ccc(C(=O)Nc3n[nH]c4ccc(Cc5cc(F)cc(F)c5)cc34)c(NC3CCOCC3)c2)CC1 [Crystal form 1 of Reference Example 1, entrectinib]",
    "endpoint-value": 99.19
  },
  {
    "compound": "CN1CCN(c2ccc(C(=O)Nc3n[nH]c4ccc(Cc5cc(F)cc(F)c5)cc34)c(NC3CCOCC3)c2)CC1 [Crystal form B of Example 5]",
    "endpoint-value": 99.91
  },
  {
    "compound": "CN1CCN(c2ccc(C(=O)Nc3n[nH]c4ccc(Cc5cc(F)cc(F)c5)cc34)c(NC3CCOCC3)c2)CC1 [Crystal form A of Example 2]",
    "endpoint-value": 99.91
  }
]
